Experiment: Compound was tested for inhibition of porcine phosphomannose isomerase (PMI)
Parameters: species or system Sus scrofa
measuredMetric: IC50 (µM)
Numbers only; they are read as µM.

Req: Recorded IC50 for O=CC(O)C(O)COP(=O)(O)O (stereo unspecified) , please?
Resp: 100

###

Target: Mannose-6-phosphate isomerase (Candida albicans (strain SC5314 / ATCC MYA-2876) (Yeast), UniProt P34948)
Test: Inhibition of phosphomannose isomerase enzyme of Candida albicans (CaPMI)
measuredMetric: pIC50
Scale note: pIC50 = -log10(concentration in M).

Req: Recorded pIC50 for `NNC(=O)C1(NC(=O)CCCOc2ccc(Cl)cc2Cl)Cc2ccccc2C1` , please?
Resp: 4.40

Req: Recorded pIC50 for `NC(=O)C1(NC(=O)CCCOc2cc(Cl)c(Cl)cc2Cl)Cc2ccccc2C1` , please?
Resp: 4.52

Req: Recorded pIC50 for `O=C(CCCOc1ccc(Cl)cc1Cl)NC1(C(=O)NO)Cc2ccccc2C1` , please?
Resp: 4.41

Req: Recorded pIC50 for NC(=O)C1(NC(=O)CCCOc2ccc(Cl)cc2Cl)CCc2ccccc2C1 (stereo not given) , please?
Resp: 4.03

###

Molecular target: Mannose-6-phosphate isomerase (Candida albicans (strain SC5314 / ATCC MYA-2876) (Yeast), UniProt P34948)
Sequence (P34948 whole entry): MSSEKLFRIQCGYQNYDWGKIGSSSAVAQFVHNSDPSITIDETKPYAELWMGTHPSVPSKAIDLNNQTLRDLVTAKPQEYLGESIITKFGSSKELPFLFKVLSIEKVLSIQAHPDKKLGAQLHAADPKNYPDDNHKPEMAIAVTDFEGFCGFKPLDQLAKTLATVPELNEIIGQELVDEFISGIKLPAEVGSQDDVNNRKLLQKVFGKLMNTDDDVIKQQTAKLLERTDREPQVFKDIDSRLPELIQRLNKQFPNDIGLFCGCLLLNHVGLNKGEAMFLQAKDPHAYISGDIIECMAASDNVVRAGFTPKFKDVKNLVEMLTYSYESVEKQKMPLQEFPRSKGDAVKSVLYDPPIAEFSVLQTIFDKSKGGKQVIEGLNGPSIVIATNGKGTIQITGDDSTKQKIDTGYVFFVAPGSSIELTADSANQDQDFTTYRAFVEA
Assay: Inhibition of phosphomannose isomerase enzyme of Candida albicans (CaPMI)
# pIC50 per entry
Scale note: pIC50 = -log10(concentration in M).

Req: Recorded pIC50 for `O=C(CCCOc1ccc(Cl)cc1Cl)NC1(CO)Cc2ccccc2C1` , please?
Resp: 3.85

Req: Recorded pIC50 for `NC(=O)C1(NC(=O)CCCNc2ccc(Cl)cc2Cl)Cc2ccccc2C1` , please?
Resp: 4.30

Req: Recorded pIC50 for `COC(=O)C1(NC(=O)CCCOc2ccc(Cl)cc2Cl)Cc2ccccc2C1` , please?
Resp: 4.47

###

Target: Mannose-6-phosphate isomerase (Homo sapiens, UniProt P34949)
Sequence (P34949 whole entry): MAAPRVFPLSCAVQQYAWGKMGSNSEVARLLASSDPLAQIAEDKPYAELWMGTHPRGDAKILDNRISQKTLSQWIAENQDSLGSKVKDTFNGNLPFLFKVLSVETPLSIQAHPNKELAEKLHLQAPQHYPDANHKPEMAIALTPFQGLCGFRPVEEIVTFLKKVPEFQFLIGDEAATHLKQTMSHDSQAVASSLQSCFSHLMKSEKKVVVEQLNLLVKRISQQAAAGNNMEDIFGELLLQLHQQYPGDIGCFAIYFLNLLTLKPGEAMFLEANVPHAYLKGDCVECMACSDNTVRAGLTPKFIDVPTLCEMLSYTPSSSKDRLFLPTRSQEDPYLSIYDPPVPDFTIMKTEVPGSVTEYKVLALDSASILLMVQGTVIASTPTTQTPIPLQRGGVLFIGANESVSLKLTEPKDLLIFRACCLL
measuredMetric: pIC50
Scale note: pIC50 = -log10(concentration in M).

Req: Recorded pIC50 for O=CC(O)C(O)COP(=O)(O)O (stereo unspecified) , please?
Resp: 4.00

###

# pIC50 per entry
Molecular target: Mannose-6-phosphate isomerase (Candida albicans (strain SC5314 / ATCC MYA-2876) (Yeast), UniProt P34948)
Experiment: Inhibition of phosphomannose isomerase enzyme of Candida albicans (CaPMI)
Scale note: pIC50 = -log10(concentration in M).

# count of solved cases: 2
# sampleSmiles, pIC50
records = [
    ("NC(=O)C1(NC(=O)CCCNc2ccc(Cl)c(Cl)c2)Cc2ccccc2C1", 4.68),
    ("NC(=O)C1(NC(=O)CCCSc2ccc(Cl)cc2Cl)Cc2ccccc2C1", 4.85),
]

Req: Recorded pIC50 for `CNC(=O)C1(NC(=O)CCCOc2ccc(Cl)cc2Cl)Cc2ccccc2C1` , please?
Resp: 4.47

###

# IC50 per entry
Target: Mannose-6-phosphate isomerase (Candida albicans (strain SC5314 / ATCC MYA-2876) (Yeast), UniProt P34948)
Sequence (P34948 whole entry): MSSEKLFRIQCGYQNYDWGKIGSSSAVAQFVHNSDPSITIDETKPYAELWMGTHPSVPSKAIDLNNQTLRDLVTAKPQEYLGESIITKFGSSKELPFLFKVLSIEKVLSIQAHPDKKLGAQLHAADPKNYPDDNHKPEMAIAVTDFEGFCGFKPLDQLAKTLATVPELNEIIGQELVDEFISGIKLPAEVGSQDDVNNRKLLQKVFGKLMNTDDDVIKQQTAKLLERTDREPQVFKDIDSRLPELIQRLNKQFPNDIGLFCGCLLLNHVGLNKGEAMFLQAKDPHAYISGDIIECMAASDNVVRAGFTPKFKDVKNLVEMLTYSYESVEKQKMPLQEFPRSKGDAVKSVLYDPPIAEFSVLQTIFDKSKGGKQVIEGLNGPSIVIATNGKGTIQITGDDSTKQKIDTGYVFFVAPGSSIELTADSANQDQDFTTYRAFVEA
Assay: Inhibition of phosphomannose isomerase enzyme of Candida albicans (CaPMI)

# count of solved cases: 2
# compound, measuredMetric, experimentalResult
measured = [
    ("NC(=O)C1(NC(=O)CCCOc2ccc(Cl)cc2Cl)CCc2ccccc21 (centres undefined)", "IC50", "> 200 µM"),
    ("O=C(CCCOc1ccc(Cl)cc1Cl)NC1Cc2ccccc2C1", "IC50", "> 200 µM"),
]

Req: Recorded IC50 for CC(Cc1ccccc1)(NC(=O)CCCOc1ccc(Cl)cc1Cl)C(N)=O (centres undefined) , please?
Resp: > 200 µM

Req: Recorded IC50 for `COC(=O)C1(NC(=O)CCCOc2ccc(Cl)c(Cl)c2)Cc2cc3ccccc3cc2C1` , please?
Resp: > 200 µM

Req: Recorded IC50 for `NC(=O)C1(NC(=O)CCCSc2ccc(Cl)c(Cl)c2)Cc2ccccc2C1` , please?
Resp: 6 µM

Req: Recorded IC50 for `O=C(CCCOc1ccc(Cl)cc1Cl)NC1(C(=O)O)Cc2ccccc2C1` , please?
Resp: > 500 µM

Req: Recorded IC50 for `NC(=O)C1(NC(=O)CCCOc2ccc(Cl)c(Cl)c2)Cc2ccccc2C1` , please?
Resp: 15 µM

Req: Recorded IC50 for COC(=O)c1ccc2c(c1)CC(NC(=O)CCCOc1ccc(Cl)c(Cl)c1)(C(=O)OC)C2 (centres undefined) , please?
Resp: > 200 µM

Req: Recorded IC50 for `Cc1cc(OCCCC(=O)NC2(C(N)=O)Cc3ccccc3C2)ccc1Cl` , please?
Resp: 50 µM

###

Target: Mannose-6-phosphate isomerase (Candida albicans (strain SC5314 / ATCC MYA-2876) (Yeast), UniProt P34948)
Assay: Inhibition of phosphomannose isomerase enzyme of Candida albicans (CaPMI)
pIC50: −log10 of the molar value.
# pIC50 per entry

# count of solved cases: 2
# molecule, pIC50
records = [
    ("COC(=O)C1(NC(=O)CCCOc2ccc(Cl)c(Cl)c2)Cc2ccc3ccccc3c2C1 (stereo not drawn)", "< 3.70"),
    ("NC(=O)C1(NC(=O)CCCOc2ccc(Cl)cc2Cl)CCCC1", "< 3.70"),
]

Turning now to a further record.
Req: Recorded pIC50 for NC(=O)C1Cc2ccccc2CN1C(=O)CCCOc1ccc(Cl)cc1Cl (stereo not drawn) , please?
Resp: < 3.70
